pIC50 for assorted compounds
Tested on: Panc1
protocol: MTT growth inhibition, pancreatic cell line Panc1
Assay type: cell-based
reported-conditions: MTT assay, 96 h treatment; average of three independent experiments
pIC50: −log10 of the molar value.

compound: O=C(NC(=O)c1ccccc1[N+](=O)[O-])Nc1ccc(Oc2nccc(Br)n2)cc1
pIC50: 6.17
//
compound: Nc1ccccc1C(=O)NC(=O)Nc1ccc(Oc2nccc(Br)n2)cc1
pIC50: 5.46
//
compound: Cc1cc(NC(=O)NC(=O)c2ccccc2N(C)C)ccc1Oc1ncc(Br)cn1 [Compound 1, reference compound]
pIC50: 6.15

* * *

Form field: pIC50 (one value per entry).
Tested on: Panc203
protocol: MTT growth inhibition, pancreatic cell line Panc203
Type: cell-based
reported-conditions: Homo sapiens, Panc203; MTT assay, 96 h treatment; average of three independent experiments
pIC50: −log10 of the molar value.

compound: O=[N+]([O-])c1ccccc1OC=NOC=Nc1ccc([S+]([O-])c2ncc(Br)cn2)cc1 (stereo not shown)
reading-qualifier: =
pIC50: 5.26
--
compound: Brc1cnc(Sc2ccc(N=CSN=COc3ccccc3)cc2)nc1
reading-qualifier: <
pIC50: 5.00
--
compound: Nc1ccccc1C(=O)NC(=O)Nc1ccc(Sc2ncc(Br)cn2)cc1
reading-qualifier: =
pIC50: 7.07
--
compound: Nc1ccccc1OC=NOC=Nc1ccc(Sc2ncccn2)cc1
reading-qualifier: =
pIC50: 5.26
--
compound: O=C(NC(=O)c1ccccc1[N+](=O)[O-])Nc1ccc(Sc2ncc(Br)cn2)cc1
reading-qualifier: =
pIC50: 6.15
--
compound: Brc1cnc(Sc2ccc(N=CON=COc3ccccc3)cc2)nc1
reading-qualifier: =
pIC50: 5.12
--
compound: O=C(NC(=O)c1ccccc1[N+](=O)[O-])Nc1ccc(S(=O)(=O)c2ncc(Br)cn2)cc1
reading-qualifier: <
pIC50: 5.00
